target or test system: Serine/threonine-protein kinase MARK1 (Homo sapiens)
test parameters: at 1 µM
Please note: residual activity exactly at 70% is Not satisfied. Only values below 70% get Satisfied.

{"columns": ["molecule", "qualitative label"],
 "data": [
  ["CNc1cc2c(Nc3cccc(Br)c3)ncnc2cn1", "Not satisfied"],
  ["Nc1n[nH]c2nnc(-c3c(-c4ccccc4)nn4ccccc34)cc12", "Not satisfied"],
  ["Cn1nc2c3c(cccc31)C(=O)c1ccccc1-2", "Not satisfied"],
  ["Oc1ccc(-c2nc(-c3ccc(F)cc3)c(-c3ccncc3)[nH]2)cc1", "Not satisfied"],
  ["O=C1Nc2ccccc2/C1=C1/Nc2ccccc2/C1=N\\OCCC(O)CO (stereo unspecified)", "Satisfied"],
  ["O=C1NC(=O)c2c1c1c3ccccc3[nH]c1c1[nH]c3cc(Br)ccc3c21", "Satisfied"],
  ["Oc1ccc(Nc2nc(-c3ccc(Cl)cc3)cs2)cc1", "Not satisfied"],
  ["Cn1cc(/C=C2\\C(=O)Nc3ccc(S(N)(=O)=O)cc32)c2ccccc21", "Satisfied"],
  ["Cc1ccc(NC2=CC(=O)c3sc(C)nc3C2=O)cc1", "Not satisfied"]
]}
